biological target: human Fc (human); test: ELISA; negative control
Recorded metric: optical density (OD)
Lab book: enter the figure in OD, no units written.

// worked examples, optical density included
- Binder: "375_D07 (antibody, V domains shown) VH: EVQLLESGGGLVQPGGSLRLSCAASGFTFSSYGMNWVRQAPGKGLEWVANINYNSGYTGYADSVKGRFTISRDNSKNTLYLQMNSLRAEDTAVYYCARSANWHDTALDYWGQGTLVTVSS VL: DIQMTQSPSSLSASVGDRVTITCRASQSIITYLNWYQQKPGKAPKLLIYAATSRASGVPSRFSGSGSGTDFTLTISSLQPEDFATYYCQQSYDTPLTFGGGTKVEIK"
  optical density, OD: 0.176
- Binder: "373_E04 (antibody, V domains shown) VH: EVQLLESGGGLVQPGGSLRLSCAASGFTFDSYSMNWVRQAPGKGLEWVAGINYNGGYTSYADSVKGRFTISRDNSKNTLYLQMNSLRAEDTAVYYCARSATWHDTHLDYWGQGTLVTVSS VL: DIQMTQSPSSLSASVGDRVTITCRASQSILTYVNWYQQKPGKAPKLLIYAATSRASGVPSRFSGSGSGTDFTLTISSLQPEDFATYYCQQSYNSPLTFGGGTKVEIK"
  optical density, OD: 0.251

Param item = 374_H06 (antibody, V domains shown) VH: EVQLLESGGGLVQPGGSLRLSCAASGFTFSSYGMNWVRQAPGKGLEWVSNINYNGGYTGYADSVKGRFTISRDNSKNTLYLQMNSLRAEDTAVYYCARSANWHDTALDYWGQGTLVTVSS VL: DIQMTQSPSSLSASVGDRVTITCRASQSIVSYVNWYQQKPGKAPKLVIYAATSRASGVPSRFSGSGSGTDFTLTISSLQPEDFATYYCQQSYNLPLTFGGGTKVEIK ; retrieve measured optical density.
0.166
